biological target: F-actin (rabbit skeletal muscle actin, ADP-actin filaments) (rabbit, UniProt P68135 1-377); test: co-sedimentation; dilution series of ABD mixed with an equal volume of 4 μM F-actin, 30 min at room temperature, 20 mM HEPES pH 8.0, 150 mM NaCl, 1 mM DTT; pelleted at 140,717 x g for 20 min at 4°C; Coomassie bands quantified; fit with a Hill coefficient (W859A: one site-specific binding); details: both partners purified
Quick reference for Kd among some binders
Kindly provide the numeric value in nM only, without the unit symbol.

αE-catenin ABD 699–868 (domain or fragment) DAEVSKWDDSGNDIIVLAKQMCMIMMEMTDFTRGKGPLKNTSDVISAAKKIAEAGSRMDKLGRTIADHCPDSACKQDLLAYLQRIALYCHQLNICSKVKAEVQNLGGELVVSGVDSAMSLIQAAKNLMNAVVQTVKASYVASTKYQKSQGMASLNLPAVSWKMKAPEKKP	2800

// Kd lookup, binder = αE-catenin ABD 699–906 (domain or fragment) DAEVSKWDDSGNDIIVLAKQMCMIMMEMTDFTRGKGPLKNTSDVISAAKKIAEAGSRMDKLGRTIADHCPDSACKQDLLAYLQRIALYCHQLNICSKVKAEVQNLGGELVVSGVDSAMSLIQAAKNLMNAVVQTVKASYVASTKYQKSQGMASLNLPAVSWKMKAPEKKPLVKREKQDETQTKIKRASQKKHVNPVQALSEFKAMDSI , result: 500
